Please go through the items and note down their Chymotrypsin at 100 μM %.
biological target: Chymotrypsin, from human pancreas (Homo sapiens, UniProt P17538); assay: Enzymatic assay, chymotrypsin; details: at 100 μM
Sequence (P17538 19-263): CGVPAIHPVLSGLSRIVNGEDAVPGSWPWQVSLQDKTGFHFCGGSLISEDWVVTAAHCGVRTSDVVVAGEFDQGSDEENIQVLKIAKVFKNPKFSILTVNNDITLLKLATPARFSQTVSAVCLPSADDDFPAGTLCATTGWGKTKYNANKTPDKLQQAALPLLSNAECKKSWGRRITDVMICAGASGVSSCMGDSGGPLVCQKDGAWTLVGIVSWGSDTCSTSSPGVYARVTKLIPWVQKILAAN
Where a SMILES comes first, the peptide text is derived from it.
Answers are plain numbers, in %.

Examples with their reported Chymotrypsin at 100 μM % follow.
Compound: CC[C@H](C)[C@@H]1NC(=O)[C@H](CO)NC(=O)[C@H](C)NC(=O)[C@H]([C@@H](C)O)NC(=O)[C@@H]2CSSC[C@H](NC(=O)[C@H](CCC(N)=O)NC(=O)[C@@H]3CCCN3C(=O)[C@@H]3CCCN3C1=O)C(=O)N[C@@H](CCC(N)=O)C(=O)N1CCC[C@@H]1C(=O)N1CCC[C@H]1C(=O)N[C@@H](CCc1ccccc1)C(=O)N2 [Ex. 143] (HELM PEPTIDE1{[O=C([C@H](CCc1ccccc1)N[*:1])[*:2]].C.T.A.S.I.P.P.Q.C.Q.[dP].P}$PEPTIDE1,PEPTIDE1,2:R3-10:R3|PEPTIDE1,PEPTIDE1,1:R1-13:R2$$$V2.0)
Assay Target: Chymotrypsin, from human pancreas (Homo sapiens, UniProt P17538)
Chymotrypsin at 100 μM % / %: 91
//
Compound: CCCC[C@@H]1NC(=O)[C@@H]2CCCN2C(=O)[C@@H]2CCCN2C(=O)[C@H](CC(=O)O)NC(=O)[C@H](CO)NC(=O)[C@H](CCCCN)NC(=O)[C@H]([C@@H](C)O)NC(=O)[C@@H]2CSSC[C@H](NC1=O)C(=O)N[C@@H](CCCNC(=N)N)C(=O)N1CCC[C@@H]1C(=O)N1CCC[C@H]1C(=O)N[C@@H]([C@@H](C)CC)C(=O)N2 [Ex. 57] (HELM PEPTIDE1{I.C.T.K.S.D.P.P.[Nle].C.R.[dP].P}$PEPTIDE1,PEPTIDE1,2:R3-10:R3|PEPTIDE1,PEPTIDE1,1:R1-13:R2$$$V2.0)
Assay Target: Chymotrypsin, from human pancreas (Homo sapiens, UniProt P17538)
Chymotrypsin at 100 μM % / %: 0

Note: attention shifts to another entry.
q: Assign Chymotrypsin at 100 μM % to the following record: CCCC[C@@H]1NC(=O)[C@H]([C@@H](C)O)NC(=O)[C@@H]2CSSC[C@H](NC(=O)[C@H]([C@@H](C)CC)NC(=O)[C@@H]3CCCN3C(=O)[C@@H]3CCCN3C(=O)[C@H](CC(=O)O)NC(=O)[C@H](CO)NC1=O)C(=O)N[C@@H](Cc1ccc(O)cc1)C(=O)N1CCC[C@@H]1C(=O)N1CCC[C@H]1C(=O)N[C@@H](Cc1ccccc1)C(=O)N2 [Ex. 60] (HELM PEPTIDE1{F.C.T.[Nle].S.D.P.P.I.C.Y.[dP].P}$PEPTIDE1,PEPTIDE1,2:R3-10:R3|PEPTIDE1,PEPTIDE1,1:R1-13:R2$$$V2.0)
a: 4
